target: FGFR1 tyrosine kinase (Homo sapiens, UniProt P11362, C488A/C584S/L457V); construct: the cytosolic domain of FGFR1 tyrosine kinase (amino acids 456–766); made in house; host or cells: Sf9 insect cells (baculovirus); test: Inhibition of phosphorylated FGF receptor tyrosine kinase activity; assay type: biochemical; conditions: read-out: FGF % Inhib. at 1 μM
Sequence (P11362 456-766 L457V/C488A/C584S): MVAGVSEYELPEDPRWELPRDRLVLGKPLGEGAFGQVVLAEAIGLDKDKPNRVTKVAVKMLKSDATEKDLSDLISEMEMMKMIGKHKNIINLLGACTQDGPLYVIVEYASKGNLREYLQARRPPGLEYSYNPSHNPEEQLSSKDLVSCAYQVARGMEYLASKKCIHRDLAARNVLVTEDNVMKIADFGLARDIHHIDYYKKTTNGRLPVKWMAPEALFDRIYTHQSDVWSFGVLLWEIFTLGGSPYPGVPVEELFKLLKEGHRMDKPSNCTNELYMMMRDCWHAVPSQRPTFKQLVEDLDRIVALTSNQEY
measureName: inhibition at 1 µM (%)
Give the value in % but do not write % after it.

Some compounds with recorded inhibition at 1 µM:
>>> df
                                   compound         measurename  uom  measurement
0  CCNCc1cccc2[nH]c(-c3n[nH]c4ccc(-c5cncc6ccccc56)cc34)nc12 [Example 37]  inhibition at 1 µM    %         34.4
1  CN1CCN(c2ccc3[nH]c(-c4n[nH]c5ccc(-c6cncc7ccccc67)cc45)nc3c2)CC1 [Example 20]  inhibition at 1 µM    %         96.9
2  CCc1cncc(-c2ccc3[nH]nc(/C=C/c4ccccc4)c3c2)c1Cl [Example 46]  inhibition at 1 µM    %         50.5
3  Cc1ccncc1-c1ccc2[nH]nc(/C=C/c3ccccc3)c2c1 [Example 43]  inhibition at 1 µM    %         59.6
4  c1ccc2c(-c3ccc4[nH]nc(-c5nc6c(CCN7CCCC7)cccc6[nH]5)c4c3)cncc2c1 [Example 34]  inhibition at 1 µM    %         26.9

Form: compound = c1ccc2[nH]c(-c3n[nH]c4ccc(-c5cncc6c5CCCN6)cc34)nc2c1 [Example 54] ; inhibition at 1 µM = 81.5

Form: compound = C(=C\c1n[nH]c2ccc(-c3ccc4ccncc4c3)cc12)/c1ccccc1 [Example 24] ; inhibition at 1 µM = 45.4

Form: compound = Cc1c(/C=C/CO)cncc1-c1ccc2[nH]nc(-c3nc4ccccc4[nH]3)c2c1 [Example 59] ; inhibition at 1 µM = 47.6

Form: compound = CNCc1cccc2[nH]c(-c3n[nH]c4ccc(-c5cncc6ccccc56)cc34)nc12 [Example 32] ; inhibition at 1 µM = 29.7
